Items are presented alongside their recorded PBM binding z-score.
Tested on: PPARg:RXRa 270nM:90nM, anti-RXR (NR concentration 270 nM, RXRa partner concentration 90 nM)
Assay: PBM binding z-score (relative to random genomic background probes); higher = stronger binding; sequences stand for … in GC…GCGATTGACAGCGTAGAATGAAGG
Form rule: numeric answer, no unit written next to it.

• GCTATTAGTTGAAAGGGCAGCCGAATGATTCTCG = 3.53
• ATCTCTAGGTAACAATTTCAGTGAAAGAGAGGAC = 0.62
• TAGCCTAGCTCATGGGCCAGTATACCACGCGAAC = -0.783
• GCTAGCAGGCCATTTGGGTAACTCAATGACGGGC = -0.594

What does the record list as PBM binding z-score for `GATACAGGGTCAAGGACAGAGTACGCGTATTGAT` ?
5.61

Entry under review: `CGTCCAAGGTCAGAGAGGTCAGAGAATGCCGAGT` . Reported PBM binding z-score?
4.28

// query PBM binding z-score value for entry `GCTATTAGTTGAAAGGGCAACCGAATGATTCTCG`
4.29

// PBM binding z-score lookup, key: `ATCGAAAGGTCGATGGTGAGTATACCCACCCGAA`
1.85

Give the measured PBM binding z-score of `TTACCAAGGTGAAAGGTAGTTGATGCACGCCTTG` .
4.56

Any idea what its PBM binding z-score is? The sequence is `CGTCCAAGGTCAGAGAGGTCAGTGGATGCCGAGT`
4.26

// PBM binding z-score lookup, key: `TCTCGGAGGATACGAAGGTCAGAGCTTTCCAGAG`
1.23

Would you mind telling me what PBM binding z-score value was observed for `ATACCGAGGTGATCGTGAGGTCGTTGATACTAAC` ?
0.574

Recorded PBM binding z-score for `CGTCCAAGGTCAGAGAGGTCAGTGAGTGCCGAGT` , please?
4.4

# lookup: PBM binding z-score of `AGTCAAAGATCATCTAGGTAACGTAAGATATGCT`
1.54

###

System: PXR homodimer (NR concentration 270 nM)
Experiment: PBM binding z-score (relative to random genomic background probes); higher = stronger binding; sequences stand for … in GC…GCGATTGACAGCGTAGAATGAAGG
Value type: PBM binding z-score
A bare number is all that is needed in reply.

// known answers, use as guide
* GCTTGTAGATCAAGTTTAAGAAAGACTAAGCTAA | 0.211
* CCAGACAGGTGAAGGGTAACTCAGTCTGGTACGC | -0.0922
* TCATATGGGTAAATGCTAGGTGAAAGTCCGATCT | -0.0586
* AGAATGAGGTTAAGAGCAGGGAAACAGAATACAT | 0.121
* CGAACGAGGGCATGAGTTGATACCAAATGCCGAT | 0.347
* AGAATGAGGTTACCATAGATCAGGGAAACGCTTG | 0.179

May I ask what PBM binding z-score has been recorded for `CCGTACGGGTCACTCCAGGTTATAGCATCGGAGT` ?
0.156

I am curious: what PBM binding z-score value has been reported for `ATCTCTAGGTAACCAGGTTCAGTGAATGCCGAAC` ?
0.388

Can you look up the measured PBM binding z-score of `GCTAGTAGGCCATTTGGGTCACTCAATGACGGGC` for me?
-0.242

Report PBM binding z-score for `CCTGCTAGGTCAATGGTCAGCAAAAGCAGCTCGC` please.
-0.358

Which PBM binding z-score value is on record for `TCAGACAGCTGAAGGTAACTCAGGTACGCAGTCG` ?
-0.874

Fill in the blank: the reported PBM binding z-score of `CCAGACAGGTGACAAGGTAACTCAGCCTCGATTA` is ____.
-0.207

# query: PBM binding z-score of entry `AGAATGTGGTTAAGATCAGGGAAACAGAATACAT`
0.679

Looking for the measured PBM binding z-score of `CCTGTTAGTTGACCATAAGGGCAACCGAAGCTCG` , can you help?
0.794

Reported PBM binding z-score for `TCTCGGAGGACACGAAAGGTCAGAGCCCGACATC` : what is it?
0.732

# query: PBM binding z-score of entry `TCTTTTAGATCAATAGAGGTTAAGAAAGTGCGCT`
0.207
